B1: Zinc finger homeobox protein 3, residues 2244 to 2299; numbered along this chain, Q15911 (parent)
chain: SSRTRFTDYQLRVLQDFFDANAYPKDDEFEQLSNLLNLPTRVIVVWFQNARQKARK

Variants of: B1
TEST_DESCRIPTION: abundance fitness (aPCA) (normalised: wild type 0, dead -1); higher = more abundant; growth selection in yeast, the domain comes from the species named
PARTICULARS: Homo sapiens
# reported abundance fitness; entries follow
ENDPOINT_LABEL: abundance fitness

* L36M | -0.375
* L36Y | -0.86
* N34K | 0.137
* A20V | -0.249
* F18I | -0.249
* L35K | 0.201
* L38S | -0.506
* F17N | -0.125
* S33C | -0.498
* A22I | -0.07
* P39Y | -0.99
* R12E | -0.422
* L35R | 0.085
* R3L | 0.439
* Y23P | -0.749
* N34M | -0.024
* P39F | -0.715
* L36V | 0.024
* T7R | -0.556
* T7N | -0.565
* L14Y | -1.05
* F17V | -0.124
* R3A | 0.388
* E28W | -0.719
* L14N | -0.953
* L38V | -0.226
* A20Q | -0.111
* A20M | -0.268
* F17R | 0.084
* D8L | -0.332
* E28Q | -0.169
* N34D | -0.199
* N34A | 0.067
* A20T | -0.044
* A20F | -0.618
* L38K | -0.531
* F18A | -0.279
* L36R | -0.748
* F29V | -0.102
* L36D | -0.908
* F29H | -0.484
* V13R | -0.323
* L32D | -0.637
* A22F | -0.353
* R12G | -0.238
* P39R | -0.258
* L32I | -0.17
* S2V | 0.042
* E28L | -0.739
* L32G | -0.842
* L35A | -0.078
* N37S | -0.064
* T4K | -0.661
* Q10W | -0.964
* L35D | 0.115
* L32C | -0.641
* L36S | -0.272
* A20L | -0.188
* V13Q | 0.168
* K25R | 0.013
* V13M | 0.173
* F29P | -0.915
* E28G | -0.488
* L11V | 0.015
* P39L | -0.786
* L14R | -0.93
* Y9P | -0.195
* R12N | 0.035
* S1T | 0.003
* D19E | 0.172
* S1P | -0.636
* T40H | -0.127
* D26V | -0.055

Where do these numbers come from? They come from the Human Domainome abundance scans (Beltran et al. 2025).
